src = PubChem BioAssay (NCATS)

Assay: qHTS profiling of the MIPE4 collection as inhibitors of Plasmodium falciparum (HB3) proliferation (AID 743347);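 note: plate controls were DMSO vehicle wells for no effect and artemisinin wells for full effect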
Details: P. falciparum HB3 in erythrocytes, SYBR Green DNA, 72 h; at 28.5 µM (top of the series) unless noted
# growth, % of control values compiled below

COMPOUND: O=C1NC(=O)C(c2ccccc2[N+](=O)[O-])=C1Nc1ccc(O)c(Cl)c1
growth, % of control, %: 125

COMPOUND: O=C(NC(Cc1cc(=O)[nH]c2ccccc12)C(=O)O)c1ccc(Cl)cc1 (stereo not given)
growth, % of control, %: 75.3

COMPOUND: CC(C)C[C@H](NC(=O)[C@H](Cc1ccccc1)NC(=O)c1cnccn1)B(O)O
growth, % of control, %: 3.13

COMPOUND: NS(=O)(=O)c1cc(C(=O)O)c(NCc2ccco2)cc1Cl
growth, % of control, %: 84.6

COMPOUND: COC1=C(OC)C(=O)C(CCCCCCCCCCO)=C(C)C1=O
growth, % of control, %: 73.4

----------
Assay: Quantitative High-Throughput drug screen in 47 multiple myeloma cell lines against the NCATS MIPE library collection: JIM3_ECACC cell viability assay (AID 1918963; note: nearly all actives have a fitted effect of over 35% in size)
Settings: JIM3 myeloma viability, CellTiter-Glo ATP, 48 h; series mostly up to 45.8 µM
Results filed as inconclusive are left out. Calls of active or inactive are those of the source. Calls follow the shape of the dose curve; as a rule, active = well fitted cell-killing curve with a large enough effect; inconclusive = small, poorly fitted or top-dose-only effect; inactive = no such curve, though single readings can be large or run the other way.
Labels: active, inactive

COMPOUND: O=C(CS(=O)Cc1ccco1)NCC=CCOc1cc(CN2CCCCC2)ccn1 (stereo not given)
CATEGORY: inactive
//
COMPOUND: O=c1c(O)c(-c2ccc(O)cc2O)oc2cc(O)cc(O)c12
CATEGORY: inactive
//
COMPOUND: COC(=O)C1=C(C)NC(C)=C(C(=O)OCCCN2CCC(c3ccccc3)(c3ccccc3)CC2)C1c1cccc([N+](=O)[O-])c1 (stereo not given)
CATEGORY: inactive
//
COMPOUND: CCOC(=O)C1=C[C@@H](OC(CC)CC)[C@H](NC(C)=O)[C@@H](N)C1
CATEGORY: inactive
//
COMPOUND: CCc1nc(N)nc(N)c1-c1ccc(Cl)cc1
CATEGORY: active

----------
Molecular target: Cytochrome P450 2C19 (Homo sapiens) (UniProt P33261)
Sequence (P33261 whole entry, looked up): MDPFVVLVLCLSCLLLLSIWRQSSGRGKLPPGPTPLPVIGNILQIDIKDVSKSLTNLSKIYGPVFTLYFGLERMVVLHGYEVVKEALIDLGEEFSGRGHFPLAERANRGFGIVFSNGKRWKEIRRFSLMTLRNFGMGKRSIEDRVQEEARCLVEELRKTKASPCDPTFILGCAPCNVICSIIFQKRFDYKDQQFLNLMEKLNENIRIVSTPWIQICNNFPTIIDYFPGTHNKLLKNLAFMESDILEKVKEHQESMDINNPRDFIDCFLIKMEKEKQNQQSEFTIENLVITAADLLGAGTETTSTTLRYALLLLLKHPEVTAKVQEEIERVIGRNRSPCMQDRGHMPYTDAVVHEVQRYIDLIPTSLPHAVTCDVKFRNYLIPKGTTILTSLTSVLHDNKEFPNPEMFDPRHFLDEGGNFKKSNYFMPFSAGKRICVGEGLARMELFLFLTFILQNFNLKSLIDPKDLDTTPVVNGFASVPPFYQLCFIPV
Test: qHTS Assay for Inhibitors and Substrates of Cytochrome P450 2C19 (AID 899); note: nearly all actives have a fitted effect of over 60% in size
Conditions: recombinant CYP2C19, luciferin-H EGE luminescence; series mostly up to 57.1 µM
Records with an inconclusive call do not appear. Active and inactive are the calls of the source. The call rests on the fitted dose curve; in most records, active means well fitted inhibition curve with a large enough effect; inconclusive means small, poorly fitted or top-dose-only effect; inactive means no such curve, though single readings can be large or run the other way.
Classes used: active, inactive

CHEMICAL STRUCTURE: Oc1ccc(-c2nc(-c3ccc(F)cc3)c(-c3ccncc3)[nH]2)cc1
CATEGORY: active

CHEMICAL STRUCTURE: O=C(O)c1cccnc1Nc1cccc(C(F)(F)F)c1
CATEGORY: inactive

CHEMICAL STRUCTURE: O=C1c2ccccc2-c2n[nH]c3cccc1c23
CATEGORY: inactive

CHEMICAL STRUCTURE: O=C(NCCO[N+](=O)[O-])c1cccnc1
CATEGORY: active

CHEMICAL STRUCTURE: CCCc1cc(=O)[nH]c(=S)[nH]1
CATEGORY: inactive

CHEMICAL STRUCTURE: O=c1c(O)c(-c2ccc(O)cc2O)oc2cc(O)cc(O)c12
CATEGORY: inactive

CHEMICAL STRUCTURE: C[C@H](Cc1ccc(O)c(O)c1)[C@@H](C)Cc1ccc(O)c(O)c1
CATEGORY: active
